assayTarget: Muscarinic acetylcholine receptor M2 (Homo sapiens) (UniProt P08172)
Sequence (P08172 whole entry): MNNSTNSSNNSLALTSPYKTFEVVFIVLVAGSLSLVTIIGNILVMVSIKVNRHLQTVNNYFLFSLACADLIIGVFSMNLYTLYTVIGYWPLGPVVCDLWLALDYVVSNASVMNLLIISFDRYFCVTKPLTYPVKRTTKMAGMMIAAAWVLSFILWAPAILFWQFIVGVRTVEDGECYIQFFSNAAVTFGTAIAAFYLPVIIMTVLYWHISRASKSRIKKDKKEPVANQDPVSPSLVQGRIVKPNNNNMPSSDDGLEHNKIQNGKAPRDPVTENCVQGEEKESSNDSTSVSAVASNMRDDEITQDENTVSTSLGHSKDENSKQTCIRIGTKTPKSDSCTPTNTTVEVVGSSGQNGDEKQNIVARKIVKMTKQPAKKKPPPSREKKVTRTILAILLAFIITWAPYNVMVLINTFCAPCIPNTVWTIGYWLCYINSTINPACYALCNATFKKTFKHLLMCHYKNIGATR
procedureSummary: Agonist activity at human muscarinic M2 receptor expressed in CHO cells after 30 mins by GTPgamma35S binding assay relative to oxotremorine-M
Type: functional, cell-based
Parameter Efficacy: see the listing below.

Worked examples follow.
C/C(=N\c1ccc2c(c1)[C@@H](NC(=O)c1ccc(Br)cc1)[C@H](O)C2)N(C)c1ccc(F)cc1    < 20%
COc1ccc(C(=O)N[C@@H]2c3cc(/N=C(\C)N(C)Cc4ccc(F)cc4)ccc3C[C@H]2O)cc1    < 20%

Please look at the following compound next.
Suppose we examine the compound COc1cccc(CN/C(C)=N/c2ccc3c(c2)[C@@H](NC(=O)c2ccc(Br)cc2)[C@H](O)C3)c1 ; what Efficacy value has been reported?
< 20%
